- assaySystem: T1, Anti-PSMA Fab (SEQ ID NOs: 19, 20)
- T1 construct: Biotinylated and captured on neutravidin coated plates in the phage ELISA; also called 006 PSMA Fab
- experiment: phage binding ELISA on captured PSMA Fab; competitor PSMA antigen pre-incubated in the well
Where no end group is shown, it is not given here.
Rule: Criterion met for Anti-PSMA Fab signal in the presence of PSMA not less than 0.1, Criterion not met for anything less.

INSERT INTO assay_data (binder, assignedclass) VALUES
  ('FDKWCIPPWMCQAL (cysteine pairing not given here; also: fused to phage pIII, sequence and linker not given here, Peptide-180 library clone, tested as clonal phage supernatant; not shown: pIII of the bacteriophage to which the peptide is fused) [Phage-1893]', 'Criterion met'),
  ('LEKWCIPAWMCEWS (cysteine pairing not given here; also: fused to phage pIII, sequence and linker not given here, Peptide-180 library clone, tested as clonal phage supernatant; not shown: pIII of the bacteriophage to which the peptide is fused) [Phage-1891]', 'Criterion met'),
  ('VSRLCIPTWMCDYS (cysteine pairing not given here; also: displayed as fusion to phage pIII, Peptide-180 library clone, tested as clonal phage supernatant; not shown: pIII of the bacteriophage to which the peptide is fused) [Phage-1900]', 'Criterion not met'),
  ('SVKMCTPAWMCSGF (cysteine pairing not given here; also: fused to phage pIII, sequence and linker not given here, Peptide-180 library clone, tested as clonal phage supernatant; not shown: pIII of the bacteriophage to which the peptide is fused) [Phage-1899]', 'Criterion not met'),
  ('VLKWCTPAWMCEIF (cysteine pairing not given here; also: fused to phage pIII, sequence and linker not given here, Peptide-180 library clone, tested as clonal phage supernatant; not shown: pIII of the bacteriophage to which the peptide is fused) [Phage-1896]', 'Criterion met'),
  ('DVKWCIPAWMCEGF (cysteine pairing not given here; also: displayed as fusion to phage pIII, Peptide-180 library clone, tested as clonal phage supernatant; not shown: pIII of the bacteriophage to which the peptide is fused) [Phage-1904]', 'Criterion met');
